Test: Acute toxicity, intravenous administration to male ddY-strain mice
Conditions: mouse, in vivo
Method: The acute toxicity of the 5-isoquinolinesulfonyl derivatives and their pharmaceutically acceptable acid addition salts were measured by giving male ddY-strain mice an intravenous administration.
// LD50 lookup, one value per entry
measurement_kind: LD50

- CC(C)CC1CN(S(=O)(=O)c2cccc3cnccc23)CCN1 (stereo not drawn): 130 mg/kg
- CCCCCCN1CCN(S(=O)(=O)c2cccc3cnccc23)CC1: 108 mg/kg
- O=S(=O)(c1cccc2cnccc12)N1CCCC1: 150 mg/kg
- CC1CN(S(=O)(=O)c2cccc3cnccc23)C(C)CN1 (stereo not drawn): 42 mg/kg
- CNS(=O)(=O)c1cccc2cnccc12: 137 mg/kg
- NCCCCNS(=O)(=O)c1cccc2cnccc12: 87 mg/kg

* * *

test system: femoral artery; test: Effect on blood flow volume of femoral artery of dog; assay type: in vivo, dog of mixed breed; conditions: Canis lupus familiaris, iv, 1 mg/Kg intravenous; anesthetized dog; read-out: Increased Blood Flow Volume in Femoral Artery
measurement_kind: change in vivo at 1 mg/kg (%)

• CC1CN(S(=O)(=O)c2cccc3cnccc23)CCN1 (stereo not shown) [Compound 37] = 65
• CC(C)CC1CN(S(=O)(=O)c2cccc3cnccc23)CCN1 (stereo not shown) [Compound 46] = 32
• NCCNS(=O)(=O)c1cccc2cnccc12 [Compound 1] = 30
• CCCCCCN1CCN(S(=O)(=O)c2cccc3cnccc23)CC1 [Compound 51] = 39

src = patent US4525589A
